Provenance of the data: patent US20250270315A1

target: T1, human SIRPα v1 ECD recombinant protein (tag not given) (human, UniProt P78324 31-373); assay: competitive ELISA, mFc-CD47 ECD on coated SIRPα v1 ECD
T1 construct: extracellular domain; also called biotin labeled soluble human SIRPα v1 ECD recombinant protein; ELISA microplate coated human SIRPα v1 ECD
T1 sequence (P78324 31-373): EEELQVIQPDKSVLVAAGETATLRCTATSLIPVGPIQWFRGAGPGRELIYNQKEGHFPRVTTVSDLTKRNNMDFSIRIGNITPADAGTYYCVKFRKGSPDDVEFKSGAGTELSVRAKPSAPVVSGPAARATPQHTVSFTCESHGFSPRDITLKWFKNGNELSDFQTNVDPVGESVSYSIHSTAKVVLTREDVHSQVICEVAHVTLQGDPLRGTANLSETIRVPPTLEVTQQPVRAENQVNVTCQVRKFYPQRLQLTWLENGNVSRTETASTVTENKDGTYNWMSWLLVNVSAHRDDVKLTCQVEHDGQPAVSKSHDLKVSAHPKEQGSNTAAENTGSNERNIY
readout_label: pIC50
Give only the number. pIC50 is defined as minus log10 of concentration in molar units.

Worked set:
hu1H9G4 (antibody, V domains shown) VH: QVQLVQSGAEVKKPGASVKVSCKASGYTFTSYWITWVKQAPGQGLEWIGDIYPGSGSTNHIEKFKSKATLTVDTSISTAYMELSRLRSDDTAVYYCATGYGSSYGYFDYWGQGTLVTVSS VL: DIQMTQSPSSLSASVGDRVTITCRASENIYSYLAWYQQKPGKAPKLLIYTAKTLAEGVPSRFSGSGSGTDFTLTISSLQPEDFATYYCQHQYGPPFTFGQGTKLELK = 8.72
015c (antibody, V domains shown, also called chimeric antibody 015c) VH: EVQLQQSGVEVVQPGASVKLSCTASGFNIEAYYMHWVKQRTEQGLEWIGRIDPEDGESKYAPKFQGKATMTADTSSSTAYLQLSSLTSDDTAVYYCVRGSYEYWGQGTTLTVSS VL: QIVLTQSPAIMSASPGEKVTLTCSASSSVSSSYLYWYQQKPGSSPKLWIYSTSNLASGVPPRFSGSGSGTSYSLTISSMQAEDAASYFCYQWSSYPYTFGGGTKLEIK = 8.63
071c (antibody, V domains shown, also called chimeric antibody 071c) VH: QIQLVQSGPELKKPGETVKISCKASGYTFTTYGMSWVKQAPGKGLKWMVWINTYSGVPTYADDFQGRFAFSLETSASTSYLQINNLRNEDTATYFCARDPHYYGTSPAWFAYWGQGTLVTVSA VL: DIVMTQSQKFMSTTIGDRVIITCKASQIVGIAVAWYQQKPGQSPKLLIYSASNRFTGVPDRFTGSGSGTDFTLTISNMQSEDLADYFCQQYSTYPFTFGSGTKLEIK = 8.54
073c (antibody, V domains shown, also called chimeric antibody 073c) VH: QIQLVQSGPELKKPGETVKISCKASGYTFTTYGMSWVKQAPGKGLKWMVWINTYSGVPTYADDFKGRFAFSLETSASTSYLQINNLKNEDTATYFCARDPHYYGSSPAWFVYWGQGTLVTVSA VL: DIVMTQSQKFMSTTIGDRVSITCEASQIVGIAVAWYQQKPGQSPKLLIYSASNRYTGVPDRFTGSGSGTDFTLTISNMQSEDLANYFCQQYSAYPFTFGSGTKLEVK = 8.56

Looking up 025c (antibody, V domains shown, also called chimeric antibody 025c; parental antibody of 025c) VH: EVQLQQSGAELVKPGASVKLSCTASGFNIKDYYMHWVKQRTEQGLEWIGRIDPEDGETKYAPKFQGKATITADTSSNTAYLQLSSLTSEDTAVYYCDRGLAYWGQGTLVTVSA VL: QIVLTQSPAIMSASPGEKVTLTCSASSSVSSSYLYWYQQKPGSSPKLWIYSTSNLASGVPARFSGSGSGTSYSLTISSMEAEDAASYFCHQWSSYPYTFGGGTKLEIK , I see its pIC50 listed as 8.67
